For each record, write down the corresponding koff.
target_or_system: T1, full length recombinant human 2N4R tau (amino acids 1-441) (human, UniProt P10636 1-758)
T1 construct: Bought (rPeptide); recombinant, non-phosphorylated; also called recombinant tau
T1 sequence (P10636 other isoform, or with tags, fused parts or gaps limits assumed): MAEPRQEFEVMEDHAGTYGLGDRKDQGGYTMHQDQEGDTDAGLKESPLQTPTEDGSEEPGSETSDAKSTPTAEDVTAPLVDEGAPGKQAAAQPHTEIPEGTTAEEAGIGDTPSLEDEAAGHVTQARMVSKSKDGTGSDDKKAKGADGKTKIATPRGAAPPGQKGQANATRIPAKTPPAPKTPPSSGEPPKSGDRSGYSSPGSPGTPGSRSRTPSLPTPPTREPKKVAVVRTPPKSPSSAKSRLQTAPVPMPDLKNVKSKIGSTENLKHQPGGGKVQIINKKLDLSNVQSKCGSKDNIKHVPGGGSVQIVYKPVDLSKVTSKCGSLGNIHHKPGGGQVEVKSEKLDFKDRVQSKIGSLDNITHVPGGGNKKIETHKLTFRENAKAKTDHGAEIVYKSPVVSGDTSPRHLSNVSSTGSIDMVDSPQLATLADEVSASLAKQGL
assay_name: SPR Biacore SCK, IgG on Protein A, tau analyte
Give bare numbers, in s⁻¹.

Completed entries (count: 4):
Clone 18 (VH2Vκ1), humanised variant of clone #28, human IgG1 (antibody, V domains shown, also called VH2VK1) VH: QSLQESGPGLVKPSETLSLTCTVSGFSLNNYDMSWVRQAPGKGLEWIGTVSTTYRRYYASWAKGRFTISKTSSTTVDLQMTSLTAEDTATYFCAASGIWGRGTLVTVSS VL: AQVLTQSTSPLSASVGDRVTITCQSSQRVYSNYLAWYQQKPGQPPKRLIFLASTLESGVPSRFSGSGSGTEFTLTISSLQCDDFATYYCAGTYTGSIWAFGGGTEVVIK    0.0033
Clone 22 (VH3Vκ1), humanised variant of clone #28, human IgG1 (antibody, V domains shown, also called VH3VK1) VH: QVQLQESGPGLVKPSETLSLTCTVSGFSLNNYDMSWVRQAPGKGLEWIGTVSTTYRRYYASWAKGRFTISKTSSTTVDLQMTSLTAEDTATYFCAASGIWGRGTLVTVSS VL: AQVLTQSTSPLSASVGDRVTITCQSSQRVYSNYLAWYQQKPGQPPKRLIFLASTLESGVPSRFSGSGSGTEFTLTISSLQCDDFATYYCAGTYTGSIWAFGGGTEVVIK    0.00249
Clone 30 (VH5Vκ1), humanised variant of clone #28, human IgG1 (antibody, V domains shown, also called VH5VK1) VH: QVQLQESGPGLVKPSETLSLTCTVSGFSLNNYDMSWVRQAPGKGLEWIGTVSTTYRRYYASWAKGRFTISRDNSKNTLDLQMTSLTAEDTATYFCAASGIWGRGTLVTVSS VL: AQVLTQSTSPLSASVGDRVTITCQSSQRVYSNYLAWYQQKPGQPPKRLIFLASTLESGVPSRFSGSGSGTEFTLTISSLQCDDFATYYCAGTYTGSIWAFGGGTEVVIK    0.00351
Clone 19 (VH2Vκ2), humanised variant of clone #28, human IgG1 (antibody, V domains shown, also called VH2VK2) VH: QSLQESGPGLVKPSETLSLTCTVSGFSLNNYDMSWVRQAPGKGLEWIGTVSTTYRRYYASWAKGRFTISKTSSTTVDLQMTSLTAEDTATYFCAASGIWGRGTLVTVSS VL: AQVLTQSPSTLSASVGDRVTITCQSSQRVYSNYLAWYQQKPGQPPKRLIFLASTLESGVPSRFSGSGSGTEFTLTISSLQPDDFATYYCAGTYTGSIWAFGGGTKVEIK    0.00324

Turning now to a further binder:
Query: Answer with the recorded koff for the binder listed here: Clone 26 (VH4Vκ1), humanised variant of clone #28, human IgG1 (antibody, V domains shown, also called VH4VK1) VH: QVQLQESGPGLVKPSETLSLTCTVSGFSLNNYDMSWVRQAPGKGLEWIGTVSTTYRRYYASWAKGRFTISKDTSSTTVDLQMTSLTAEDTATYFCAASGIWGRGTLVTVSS VL: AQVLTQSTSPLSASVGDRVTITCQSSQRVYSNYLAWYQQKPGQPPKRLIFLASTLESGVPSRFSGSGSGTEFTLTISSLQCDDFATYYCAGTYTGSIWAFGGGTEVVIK
Result: 0.00336
